# TARGET: T1, Ac-IEPD-AMC
# T1 chain: XIEPDX
QUANTITY_MEASURED: kcat/Km
# do not omit the unit; it follows the number

For orientation, consider the following solved cases.
| PROTEIN | RESULT |
| --- | --- |
| wild-type rat granzyme B (protein) IIGGHEAKPHSRPYMAYLQIMDEYSGSKKCGGFLIREDFVLTAAHCSGSKINVTLGAHNIKEQEKMQQIIPVVKIIPHPAYNSKTISNDIMLLKLKSKAKRSSAVKPLNLPRRNVKVKPGDVCYVAGWGKLGPMGKYSDTLQEVELTVQEDQKCESYLKNYFDKANEICAGDPKIKRASFRGDSGGPLVCKKVAAGIVSYGQNDGSTPRAFTKVSTFLSWIKKTMKK | 3300 M⁻¹ s⁻¹ |
| rat granzyme B I99A/N218A (protein) IIGGHEAKPHSRPYMAYLQIMDEYSGSKKCGGFLIREDFVLTAAHCSGSKINVTLGAHNIKEQEKMQQIIPVVKIIPHPAYNSKTASNDIMLLKLKSKAKRSSAVKPLNLPRRNVKVKPGDVCYVAGWGKLGPMGKYSDTLQEVELTVQEDQKCESYLKNYFDKANEICAGDPKIKRASFRGDSGGPLVCKKVAAGIVSYGQADGSTPRAFTKVSTFLSWIKKTMKKS | 32 M⁻¹ s⁻¹ |

Qu. Item rat granzyme B N218A (protein) IIGGHEAKPHSRPYMAYLQIMDEYSGSKKCGGFLIREDFVLTAAHCSGSKINVTLGAHNIKEQEKMQQIIPVVKIIPHPAYNSKTISNDIMLLKLKSKAKRSSAVKPLNLPRRNVKVKPGDVCYVAGWGKLGPMGKYSDTLQEVELTVQEDQKCESYLKNYFDKANEICAGDPKIKRASFRGDSGGPLVCKKVAAGIVSYGQADGSTPRAFTKVSTFLSWIKKTMKKS has what recorded kcat/Km?
Ans. 2200 M⁻¹ s⁻¹
